- System: KB-3-1
- test_description: Cytotoxic Profiling of Annotated Libraries Using Quantitative High-Throughput Screening (AID 1296008); further: on the % scale 0 is the no-effect control and ±100 the full control effect; nearly all actives have a fitted effect of over 60% in size
- condition_info: Five cell lines viability, CellTiter-Glo ATP luminescence, 48-72 h; hits give low values
Records with an inconclusive call do not appear.
measured_quantity: max response (%)
Answers are plain numbers, in %.

These recorded examples may help you get a feel for the data.
COc1cc(C(C)C)c(Oc2cnc(NC(CO)CO)nc2N)cc1I ... -2.87
Cc1cc(-c2nnc3n2CCCCC3)c(C)n1-c1ccccc1 ... -0.0627
N#CC(=C(O)c1ccc(Cl)cc1Cl)c1nc2cc(Cl)ccc2c(=O)[nH]1 ... 3.32

Look at each compound and report its max response.
1. c1ccc2c(Oc3nc(Nc4ccc(N5CCOCC5)cc4)c4ncn(C5CCCCC5)c4n3)cccc2c1
2. CN(N=O)C(=O)N[C@H]1C(O)OC(CO)[C@@H](O)[C@H]1O (stereo not given in full)
3. O=C(CN1C(=O)C2(CCCC2)NC[C@H]1c1cc(F)cc(F)c1)Nc1ccc2c(c1)C[C@@]1(C2)C(=O)Nc2ncccc21
4. CCN(C(=O)c1c(O)c2c(Cl)cccc2n(C)c1=O)c1ccccc1
5. C#C[C@]1(O)CC[C@@H]2[C@@H]3CCC4=CC(=O)CC[C@@H]4[C@H]3CC[C@@]21CC
6. CCC[C@H]1C[C@H](C(=O)N[C@@H]([C@@H]2O[C@@H](SC)[C@@H](O)[C@@H](O)[C@@H]2O)[C@H](C)Cl)N(C)C1

Response:
1. 8.53
2. 2.81
3. 2.38
4. 3.28
5. -5.98
6. 0.31

Quick batch: max response for everything below.
1. C=C(C)[C@@H]1CC[C@]2(C)CC[C@]3(C)[C@H](CC[C@@H]4[C@@]5(C)CC[C@H](O)C(C)(C)[C@H]5CC[C@]43C)[C@@H]12
2. C=C1CCC2[C@](C)(CO)C(O)CC[C@]2(C)C1CC=C1C(=O)OCC1O (stereo not given in full)

Response:
1: 8.9; 2: 8.99

For every item below, please supply its max response.
1. CCn1c(=O)c2c(nc(C=Cc3ccc(OC)c(OC)c3)n2C)n(CC)c1=O
2. Oc1cc2c(cc1O)C1c3ccc(O)c(O)c3OCC1(O)C2 (stereo not given)
3. NC(=O)c1ncn([C@@H]2O[C@H](CO)[C@@H](O)[C@@H]2O)c1O
4. CC(Oc1ccc(O)cc1)(P(=O)(O)O)P(=O)(O)O
5. COC(=O)C=CC(=O)OC
6. O=C1CSC(=O)N1C(CCc1ccncc1)COc1ccc(-c2cccc([N+](=O)[O-])c2)cc1 (stereo not given)
7. CC(=CC(=O)Nc1ccccc1C(=O)O)c1ccc2ccccc2c1
8. CC1(C)CC(O)CC(C)(C)N1[O]

Response:
1: 9.4; 2: 7.88; 3: 6.36; 4: -8.06; 5: 7.81; 6: -6.99; 7: -21; 8: 7.14

// input: 3 compounds below; output: max response for each
1. COc1cc(N2CCC(C(N)=O)CC2)ccc1Nc1nc(N)c(Cl)c(Nc2ccccc2S(=O)(=O)C(C)C)n1
2. CCOc1cc2ncc(C#N)c(Nc3ccc(OCc4ccccn4)c(Cl)c3)c2cc1NC(=O)C=CCN(C)C
3. NC(=O)c1cccc(-c2cccc(OC(=O)NC3CCCCC3)c2)c1

Response:
1: 2.09; 2: -18.5; 3: 6.26

---

- test_description: Quantitative High-Throughput drug screen in 47 multiple myeloma cell lines against the NCATS MIPE library collection: JIM3_ECACC cell viability assay (AID 1918963; further: nearly all actives have a fitted effect of over 35% in size)
- condition_info: JIM3 myeloma viability, CellTiter-Glo ATP, 48 h; series mostly up to 45.8 µM
Records with an inconclusive call do not appear. The source made the active and inactive calls. Calls follow the shape of the dose curve; as a rule, active = well fitted cell-killing curve with a large enough effect; inconclusive = small, poorly fitted or top-dose-only effect; inactive = no such curve, though single readings can be large or run the other way.
API: response.call in TRUE (active), FALSE (inactive)

Request: Lab log entry: OCC(O)C(O)C(O)CO (stereo not drawn) — outcome as called in the assay?
Response: FALSE

Request: Outcome? C=C[C@@H]1CN2CCC1C[C@H]2[C@H](O)c1ccnc2ccc(OC)cc12 (stereo partly drawn)
Response: FALSE

Request: What outcome does the record of this test show for O=C(O)c1ccc(Nc2ncc3c(n2)-c2ccc(Cl)cc2C(c2c(F)cccc2F)=NC3)cc1 ?
Response: TRUE

Request: Given C=CC[C@@H]1C=C(C)C[C@H](C)C[C@H](OC)[C@H]2O[C@@](O)(C(=O)C(=O)N3CCCC[C@H]3C(=O)O[C@H](C(C)=C[C@@H]3CC[C@H](O)[C@H](OC)C3)[C@@H](C)[C@@H](O)CC1=O)[C@@H](C)C[C@@H]2OC , state the outcome it received in this test.
Response: TRUE

Request: Could you check what this test reported for Cc1cc(O)c2c(c1)C(=O)c1cccc(O)c1C2=O ?
Response: FALSE

Request: Any idea what this test logged for CNC(=O)Nc1ccc(-c2nc(N3CC4CCC(C3)O4)c3cnn(C4CCC5(CC4)OCCO5)c3n2)cc1 ?
Response: TRUE

Request: Please share the test call associated with CCNC(=O)c1cc2c(-c3cc(OCCN4CCCC4)c(Cl)cc3Cl)nc(N)nc2s1 .
Response: TRUE

Request: Tell me the assay call for C[C@H](CCC(=O)O)[C@H]1CC[C@H]2[C@@H]3[C@H](O)C[C@@H]4C[C@H](O)CC[C@]4(C)[C@@H]3CC[C@]12C please.
Response: FALSE

---

- Test system: MKL-2
- test_description: qHTS assay to identify novel small-molecules to repurpose for Merkel cell carcinoma treatment (AID 1296009); further: nearly all actives have a fitted effect of over 60% in size
- condition_info: MCC and control cell lines, CellTiter-Glo viability, 72 h; series mostly up to 46 µM
Results filed as inconclusive are left out. Calls of active or inactive are those of the source. The call rests on the fitted dose curve; in most records, active means well fitted inhibition curve with a large enough effect; inconclusive means small, poorly fitted or top-dose-only effect; inactive means flat fitted curve, though single readings scatter.
Return exactly one item of active, inactive

Request: How did this test come out for CCC(C(=O)O)C1CCC(C)C(C(C)C(O)C(C)C(=O)C(CC)C2OC3(C=CC(O)[C@@]4(CC[C@](C)(C5CC[C@@](O)(CC)C(C)O5)O4)O3)C(C)CC2C)O1 (stereo not given in full) ?
Response: active

Request: What was the test verdict on C[C@@H](NCc1cc2ccccc2[nH]1)c1cccc2ccccc12 ?
Response: inactive

---

- test_description: Quantitative High-Throughput drug screen in 47 multiple myeloma cell lines against the NCATS MIPE library collection: H1112_PLB cell viability assay (AID 1918967; further: nearly all actives have a fitted effect of over 30% in size)
- condition_info: H1112 myeloma cells viability, ATP luminescence, 48 h; series mostly up to 45.8 µM
Results filed as inconclusive are left out. The source made the active and inactive calls. Calls come from the whole dose curve; as a rule, active = well fitted cell-killing curve with a large enough effect; inconclusive = small, poorly fitted or top-dose-only effect, or effect the other way; inactive = no such curve, though single readings can be large or run the other way.
Pick from active, inactive when you respond.

See these solved cases before continuing.
O=C(O)C(=O)Nc1cccc(C2=NN=N[N]2)c1 ... inactive
Cc1ccc(-n2[nH]c(C)c(N=Nc3cccc(-c4cccc(C(=O)O)c4)c3O)c2=O)cc1C ... active
COc1cc(CCc2cc(NC(=O)c3ccc(N4C[C@@H](C)N[C@@H](C)C4)cc3)n[nH]2)cc(OC)c1 ... active

Shift focus to the following entry.
Request: Field: outcome | Entry: CN[C@@H]1C[C@H]2O[C@@](C)([C@H]1OC)n1c3ccccc3c3c4c(c5c6ccccc6n2c5c31)C(=O)N[C@H]4O
Response: active

---

- test_description: Quantitative High-Throughput drug screen in 47 multiple myeloma cell lines against the NCATS MIPE library collection: L363_DSMZ cell viability assay (AID 1918984); further: nearly all actives have a fitted effect of over 40% in size
- condition_info: L363 myeloma viability, CellTiter-Glo ATP luminescence, 48 h; series mostly up to 45.8 µM
Inconclusive results are not listed. Active and inactive are the calls of the source. The call rests on the fitted dose curve; in most records, active means well fitted cell-killing curve with a large enough effect; inconclusive means small, poorly fitted or top-dose-only effect, or effect the other way; inactive means no such curve, though single readings can be large or run the other way.
Choose the fitting class; nothing outside Yes (active), No (inactive) is accepted.

COc1cccc2c1C(=O)c1c(O)c3c(c(O)c1C2=O)C[C@@](O)(C(=O)CO)C[C@H]3O[C@H]1C[C@H](N)[C@H](O)[C@H](C)O1 ... Yes
NC(=O)Nc1cc(-c2ccc(CN3CCOCC3)cc2)sc1C(N)=O ... Yes
COc1cc([C@@H]2c3cc4c(cc3[C@@H](O[C@@H]3O[C@@H]5CO[C@@H](c6cccs6)O[C@@H]5[C@H](O)[C@@H]3O)[C@H]3COC(=O)[C@H]23)OCO4)cc(OC)c1O ... Yes

Request: What was the test verdict on C[C@]12CCC(=O)C=C1[C@@H]1CC1[C@H]1[C@H]3[C@@H]4C[C@H]4[C@@]4(CCC(=O)O4)[C@@]3(C)CC[C@H]12 (some centres undefined) ?
Response: No

---

- test_description: Quantitative High-Throughput drug screen in 47 multiple myeloma cell lines against the NCATS MIPE library collection: Delta47_JCRB cell viability assay (AID 1918925; further: nearly all actives have a fitted effect of over 45% in size)
- condition_info: Delta47 myeloma viability, CellTiter-Glo ATP, 48 h; series mostly up to 45.8 µM
Inconclusive results are not listed. The source made the active and inactive calls. Calls follow the shape of the dose curve; as a rule, active = well fitted cell-killing curve with a large enough effect; inconclusive = small, poorly fitted or top-dose-only effect, or effect the other way; inactive = no such curve, though single readings can be large or run the other way.
Form entry, call: pick from active, inactive

Example cases with answers are listed next.
Cc1nc(NC(=O)N2CCC[C@@H]2C(N)=O)sc1-c1ccnc(C(C)(C)C(F)(F)F)c1 ... active
CC(C=CC(=O)NO)=C[C@@H](C)C(=O)c1ccc(N(C)C)cc1 ... active
CN(C)CCN1C(=O)c2cccc3cc(N)cc(c23)C1=O ... active
O=C(C=Cc1ccc(CN(CCO)CCc2c[nH]c3ccccc23)cc1)NO ... active
C=C(C)[C@@H]1CC[C@]2(C)CC[C@]3(C)[C@H](CC[C@@H]4[C@@]5(C)CC[C@H](O)C(C)(C)[C@H]5CC[C@]43C)[C@@H]12 ... inactive

Request: What did this assay record as the result for CNC(=O)c1ccc(Nc2cc(Nc3ccccc3S(=O)(=O)C(C)C)c3cc[nH]c3n2)nc1 ?
Response: active

Request: Hi, sorry to bother you, what did the test record for C=CC1=C(C(=O)O)N2C(=O)[C@@H](NC(=O)C(=NO)c3csc(N)n3)[C@H]2SC1 ?
Response: inactive

Request: Give the logged outcome of this assay for the following compound: O=C(CCCCCCC(=O)Nc1cccnc1)NO
Response: active

Request: Short answer needed: outcome of this test for COc1cc(OC)cc(-c2ccc3ncc4ccc(=O)n(-c5ccc(N6CCNCC6)c(C(F)(F)F)c5)c4c3c2)c1 ?
Response: active

The measured values listed here are drawn from PubChem BioAssay (NCATS).
